- System: P388
- method_summary: Cytotoxicity against murine P388 cells by MTT method
- Type: functional, cell-based
- measurement_context: Mus musculus
Please note: IC50 exactly at 400 nM is class 0. Only values below 400 nM get class 1.

{"columns": ["compound", "class_label"],
 "data": [
  ["C/C=C1/CN(C)[C@@H]2Cc3c([nH]c4ccccc34)[C@H](c3cc4[nH]c5c(c4cc3OC)CCN3C[C@@H]4C[C@H](CC)[C@H]3[C@H]5C4)C[C@H]1C2C(=O)OC (stereo partly specified)", "class 1"],
  ["CC[C@@]12C=CCN3CC[C@]4(C(=C(C(=O)OC)C1)Nc1cc5c(cc14)[C@H]1[C@@H](O5)[C@H](O)[C@]4(CC)CC(C(=O)OC)=C5Nc6c(cc(O)c(OC)c6OC)[C@@]56CCN1[C@H]46)[C@H]32", "class 1"],
  ["COC(=O)C1=CC[C@@]23CC[C@@H]([C@@](C)(/C=C/C=C(\\C)C(=O)O)OC2=O)[C@@]3(OC(C)=O)CC1", "class 0"],
  ["CC[C@H]1C[C@@H]2C[C@H]3c4[nH]c5cc([C@@H]6C[C@H]7C(C(=O)OC)[C@@H](Cc8c6[nH]c6ccccc86)N(C)C[C@H]7CC)ccc5c4CCN(C2)[C@@H]13 (stereo partly specified)", "class 0"],
  ["CC[C@H]1C[C@H]2CN3CCc4c([nH]c5cc([C@@H]6C[C@H]7C(C(=O)OC)[C@@H](Cc8c6[nH]c6ccccc86)N(C)C[C@H]7CC)c(OC)cc45)[C@](C(=O)OC)(C2)[C@H]13 (stereo partly specified)", "class 1"]
]}

## Task A record lists CC[C@H]1C[C@@H]2C[C@H]3c4[nH]c5cc([C@@H]6C[C@H]7C(C(=O)OC)[C@@H](Cc8c6[nH]c6ccccc86)N(C)C[C@H]7CC)c(OC)cc5c4CCN(C2)[C@@H]13 (stereo partly specified) . Is its IC50 below 400 nM?
## Result class 0
